Origin of values: paper PMC8002023

# Target: KV10.1 (Homo sapiens, UniProt O95259)
# Construct: expressed in transfected cells
# Sequence (O95259 1-962 isoform O95259-2): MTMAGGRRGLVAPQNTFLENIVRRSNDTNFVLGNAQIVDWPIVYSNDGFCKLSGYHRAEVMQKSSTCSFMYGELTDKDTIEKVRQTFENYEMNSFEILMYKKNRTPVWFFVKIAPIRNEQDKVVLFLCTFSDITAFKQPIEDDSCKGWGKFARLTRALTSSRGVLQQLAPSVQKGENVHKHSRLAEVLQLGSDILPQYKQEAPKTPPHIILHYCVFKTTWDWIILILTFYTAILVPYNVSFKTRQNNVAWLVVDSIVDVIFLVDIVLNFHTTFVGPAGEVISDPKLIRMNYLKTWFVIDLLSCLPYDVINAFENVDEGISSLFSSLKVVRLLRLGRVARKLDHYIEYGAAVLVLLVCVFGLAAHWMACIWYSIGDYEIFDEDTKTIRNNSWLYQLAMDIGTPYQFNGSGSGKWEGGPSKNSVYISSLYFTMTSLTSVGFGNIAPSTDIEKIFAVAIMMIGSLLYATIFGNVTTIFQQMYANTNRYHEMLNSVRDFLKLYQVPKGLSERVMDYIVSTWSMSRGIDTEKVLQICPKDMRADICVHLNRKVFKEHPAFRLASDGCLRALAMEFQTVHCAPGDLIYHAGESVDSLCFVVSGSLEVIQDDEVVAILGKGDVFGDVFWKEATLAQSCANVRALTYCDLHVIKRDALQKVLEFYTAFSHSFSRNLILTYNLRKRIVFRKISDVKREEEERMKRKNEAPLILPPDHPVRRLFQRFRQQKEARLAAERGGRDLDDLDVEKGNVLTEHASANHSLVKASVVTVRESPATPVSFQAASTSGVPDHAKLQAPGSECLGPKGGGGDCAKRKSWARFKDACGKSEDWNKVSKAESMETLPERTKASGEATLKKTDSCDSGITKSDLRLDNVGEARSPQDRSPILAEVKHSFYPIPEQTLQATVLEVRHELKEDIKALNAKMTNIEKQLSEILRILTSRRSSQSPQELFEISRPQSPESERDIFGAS
# Experiment notes: Whole-cell patch clamp on HEK-293 cells stably expressing KV10.1
# Type: cell-based
# Condition: HEK293; 10 μM; mean ± standard error (or range)
Experimental endpoint: inhibition at 10 µM (%)

Example entries and their recorded answers appear below.
CN(C)CC(O)COc1ccc(Nc2ccccc2C(=O)O)cc1 (stereo not drawn) [Compound 11]    37.7
CN(C)CC(O)COc1ccc(Nc2ccccc2[N+](=O)[O-])cc1 (stereo not drawn) [Compound 7]    21

1: COC(=O)c1ccccc1Nc1ccc(OCC(O)CN(C)C)cc1 (stereo not drawn) [Compound 9]
2: CN(C)CC(O)COc1ccc(Nc2ccc(C(F)(F)F)cc2)cc1 (stereo not drawn) [Compound 6]
Returns: the label, 1 or 2 , whose recorded inhibition at 10 µM is the lower number. Respond with the label that goes with your answer. 1
(1: 2%, 2: 57.5%)

A: CN(C)CC(O)COc1ccc(Nc2ccc(C(F)(F)F)cc2N)cc1 (stereo not drawn) [Compound 10]
B: O=[N+]([O-])c1cc(C(F)(F)F)ccc1Nc1ccc(OCC(O)CNc2ccccc2)cc1 (stereo not drawn) [Compound 5]
C: CN(C)CCCOc1ccc(Nc2ccccc2[N+](=O)[O-])cc1 [Compound 4]
List these items ordered by inhibition at 10 µM, big to small. A complete answer lists every label in the requested sequence. A, C, B
(A: 57%, C: 36.6%, B: 2.53%)

I: O=[N+]([O-])c1ccccc1Nc1ccc(OCC(O)CN2CCOCC2)cc1 (stereo not drawn) [Compound 2]
II: CN(C)CCCOc1ccc(Nc2ccc(C(F)(F)F)cc2[N+](=O)[O-])cc1 [Compound 1]
III: CC(=O)NCC(O)COc1ccc(Nc2ccc(C(F)(F)F)cc2[N+](=O)[O-])cc1 (stereo not drawn) [Compound 12]
Please produce an ascending ranking of these compounds based on inhibition at 10 µM. A complete answer lists every label in the requested sequence. III, I, II
(III: 16.6%, I: 23.9%, II: 87.3%)
